tested on: CSNK1G1; test: Kinobeads competition binding: CSNK1G1; set-up: species or system human; conditions: target CSNK1G1;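 further: share of total target engagement due to this protein at one drug concentration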
value kind: CATDS
Provide a numeric answer; units are not to be included.

Entry N#CC1(c2ccc(NC(=O)c3cccnc3NCc3ccncc3)cc2)CCCC1 [Apatinib] — recorded CATDS = 0

New cases:
Entry CCN1CCN(Cc2ccc(Nc3ncc(F)c(-c4cc(F)c5nc(C)n(C(C)C)c5c4)n3)nc2)CC1 [Abemaciclib] — recorded CATDS = 0

Entry CCc1cc2c(cc1N1CCC(N3CCOCC3)CC1)C(C)(C)c1[nH]c3cc(C#N)ccc3c1C2=O [Alectinib] — recorded CATDS = 0

Entry Nc1ncnc2[nH]c(-c3ccccc3)nc12 [AH5015_KCGS] — recorded CATDS = 0

###

target: CSNK1E (Homo sapiens); construct: endogenous in cells; assay: Kinobeads full dose-response competition binding: CSNK1E; settings: Gene Name CSNK1E; EC50 with Correction, doses in nM; read-out: apparent Kd
Sequence (P49674 whole entry): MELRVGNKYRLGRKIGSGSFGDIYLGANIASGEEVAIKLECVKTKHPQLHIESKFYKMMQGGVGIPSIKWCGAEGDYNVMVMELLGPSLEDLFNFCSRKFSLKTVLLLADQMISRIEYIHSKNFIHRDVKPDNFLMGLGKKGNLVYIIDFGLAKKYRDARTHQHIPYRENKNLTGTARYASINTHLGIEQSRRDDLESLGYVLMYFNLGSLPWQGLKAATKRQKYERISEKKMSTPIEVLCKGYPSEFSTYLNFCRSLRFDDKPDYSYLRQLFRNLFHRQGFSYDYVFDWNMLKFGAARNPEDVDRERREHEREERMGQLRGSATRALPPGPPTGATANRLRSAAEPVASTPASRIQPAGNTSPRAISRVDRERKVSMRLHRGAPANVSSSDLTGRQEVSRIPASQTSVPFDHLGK
value kind: Kd (nM)
Reply numerically in nM, unit not repeated.

Tested on CSNK1E (Homo sapiens), the item `NCc1ccc(-c2nc(-c3ccncc3)c(-c3ccc(Cl)c(O)c3)[nH]2)cc1` showed Kd equal to 642

###

Biological target: EPHB2 (Homo sapiens)
Construct: endogenous in cells
Sequence (P29323 19-1055): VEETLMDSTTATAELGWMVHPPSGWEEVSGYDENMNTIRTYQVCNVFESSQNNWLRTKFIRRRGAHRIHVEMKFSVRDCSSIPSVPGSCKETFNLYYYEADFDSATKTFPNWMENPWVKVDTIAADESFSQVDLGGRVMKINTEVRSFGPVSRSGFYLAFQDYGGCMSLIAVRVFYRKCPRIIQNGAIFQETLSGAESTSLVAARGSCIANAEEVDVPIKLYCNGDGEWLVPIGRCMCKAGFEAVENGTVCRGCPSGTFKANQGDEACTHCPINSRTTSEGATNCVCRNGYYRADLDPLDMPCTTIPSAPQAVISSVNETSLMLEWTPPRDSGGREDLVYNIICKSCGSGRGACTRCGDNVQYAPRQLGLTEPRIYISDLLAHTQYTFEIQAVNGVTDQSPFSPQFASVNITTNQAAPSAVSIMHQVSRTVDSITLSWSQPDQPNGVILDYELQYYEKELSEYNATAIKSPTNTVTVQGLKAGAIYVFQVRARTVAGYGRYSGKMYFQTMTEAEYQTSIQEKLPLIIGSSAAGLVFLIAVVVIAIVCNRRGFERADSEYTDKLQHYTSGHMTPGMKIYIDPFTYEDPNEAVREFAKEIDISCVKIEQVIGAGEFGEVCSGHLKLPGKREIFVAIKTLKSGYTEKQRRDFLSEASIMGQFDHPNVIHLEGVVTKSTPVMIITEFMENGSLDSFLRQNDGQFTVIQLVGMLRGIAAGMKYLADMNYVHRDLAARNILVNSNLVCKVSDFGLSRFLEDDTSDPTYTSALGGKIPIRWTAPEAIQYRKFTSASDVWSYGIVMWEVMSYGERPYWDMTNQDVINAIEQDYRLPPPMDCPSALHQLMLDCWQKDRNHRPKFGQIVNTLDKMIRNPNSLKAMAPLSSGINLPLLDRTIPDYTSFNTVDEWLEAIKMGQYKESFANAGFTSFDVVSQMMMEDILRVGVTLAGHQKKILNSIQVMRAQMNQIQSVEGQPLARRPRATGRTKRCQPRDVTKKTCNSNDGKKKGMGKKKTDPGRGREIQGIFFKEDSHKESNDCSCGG
Assay: Kinobeads competition binding: EPHB2;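 further: target engagement share of this target among all targets at its Kdapp concentration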
Settings: target EPHB2
value kind: CATDS
Provide a numeric answer; units are not to be included.

Some molecules with recorded CATDS:
Entry `N#CC1(c2ccc(NC(=O)c3cccnc3NCc3ccncc3)cc2)CCCC1` — recorded CATDS = 0

Entry `CN(C)C/C=C/C(=O)Nc1cc2c(Nc3ccc(F)c(Cl)c3)ncnc2cc1O[C@H]1CCOC1` — recorded CATDS = 0

As a next step, examine the molecule that follows.
Entry `CCc1cc2c(cc1N1CCC(N3CCOCC3)CC1)C(C)(C)c1[nH]c3cc(C#N)ccc3c1C2=O` — recorded CATDS = 0
